# Assay target: T1, human IL2Rbeta-Avi protein (R&D Systems) (human) (UniProt P14784)
# T1 sequence (looked up): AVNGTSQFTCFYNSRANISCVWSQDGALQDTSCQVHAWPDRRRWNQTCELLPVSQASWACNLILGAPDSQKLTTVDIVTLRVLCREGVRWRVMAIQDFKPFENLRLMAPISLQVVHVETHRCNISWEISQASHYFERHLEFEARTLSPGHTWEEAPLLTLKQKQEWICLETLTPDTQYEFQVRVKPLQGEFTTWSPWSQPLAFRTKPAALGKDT
# Experimental details: ELISA: variant captured by anti-human IgG-Fc, human IL2Rbeta-Avi, streptavidin-HRP
Observation type: EC50
Please append the unit to your numeric answer.

Below, each entry is followed by its recorded EC50 result.
Anti-IL2Rbeta VH modification D31S in the multi-specific format (protein, part only; not given: Rest of multi-specific format, not shown: another chain or arm of the molecule; a dimerising Fc or GST; small tags and cut ends) VH: EVQLVQSGAEVKKPGACVKISCKVSGYTFTSYYMHWVQRAPGKGLEWIGLVDPEDGETIYAEKFQGRVTITADTSTDTAYMELCSLRSEDTAVYYCATDFVKLDFSLSFQHWGQGTLVTVSS ... 0.21 µg/mL
Anti-IL2Rbeta VH modification E53S in the multi-specific format (protein, part only; not given: Rest of multi-specific format, not shown: another chain or arm of the molecule; a dimerising Fc or GST; large carriers; small tags and cut ends) VH: EVQLVQSGAEVKKPGACVKISCKVSGYTFTDYYMHWVQRAPGKGLEWIGLVDPSDGETIYAEKFQGRVTITADTSTDTAYMELCSLRSEDTAVYYCATDFVKLDFSLSFQHWGQGTLVTVSS ... 0.3 µg/mL
Anti-IL2Rbeta VH modification D31K in the multi-specific format (protein, part only; not given: Rest of multi-specific format, not shown: another chain or arm of the molecule; a dimerising Fc or GST; small tags and cut ends) VH: EVQLVQSGAEVKKPGACVKISCKVSGYTFTKYYMHWVQRAPGKGLEWIGLVDPEDGETIYAEKFQGRVTITADTSTDTAYMELCSLRSEDTAVYYCATDFVKLDFSLSFQHWGQGTLVTVSS ... 0.4 µg/mL
Anti-IL2Rbeta VH modification Y33F in the multi-specific format (protein, part only; not given: Rest of multi-specific format, not shown: another chain or arm of the molecule; a dimerising Fc or GST; large carriers; small tags and cut ends) VH: EVQLVQSGAEVKKPGACVKISCKVSGYTFTDYFMHWVQRAPGKGLEWIGLVDPEDGETIYAEKFQGRVTITADTSTDTAYMELCSLRSEDTAVYYCATDFVKLDFSLSFQHWGQGTLVTVSS ... 0.24 µg/mL
Anti-IL2Rbeta VH modification Y32F in the multi-specific format (protein, part only; not given: Rest of multi-specific format, not shown: another chain or arm of the molecule; a dimerising Fc or GST; large carriers; small tags and cut ends) VH: EVQLVQSGAEVKKPGACVKISCKVSGYTFTDFYMHWVQRAPGKGLEWIGLVDPEDGETIYAEKFQGRVTITADTSTDTAYMELCSLRSEDTAVYYCATDFVKLDFSLSFQHWGQGTLVTVSS ... 0.24 µg/mL
Anti-IL2Rbeta VH modification D31Y in the multi-specific format (protein, part only; not given: Rest of multi-specific format, not shown: another chain or arm of the molecule; a dimerising Fc or GST; small tags and cut ends) VH: EVQLVQSGAEVKKPGACVKISCKVSGYTFTYYYMHWVQRAPGKGLEWIGLVDPEDGETIYAEKFQGRVTITADTSTDTAYMELCSLRSEDTAVYYCATDFVKLDFSLSFQHWGQGTLVTVSS ... 0.24 µg/mL

Query: Reported EC50 for Anti-IL2Rbeta VH modification D31R in the multi-specific format (protein, part only; not given: Rest of multi-specific format, not shown: another chain or arm of the molecule; a dimerising Fc or GST; small tags and cut ends) VH: EVQLVQSGAEVKKPGACVKISCKVSGYTFTRYYMHWVQRAPGKGLEWIGLVDPEDGETIYAEKFQGRVTITADTSTDTAYMELCSLRSEDTAVYYCATDFVKLDFSLSFQHWGQGTLVTVSS : what is it?
Response: 0.13 µg/mL

Query: I'd like to know its EC50. The binder in question is Anti-IL2Rbeta VH modification E53I in the multi-specific format (protein, part only; not given: Rest of multi-specific format, not shown: another chain or arm of the molecule; a dimerising Fc or GST; large carriers; small tags and cut ends) VH: EVQLVQSGAEVKKPGACVKISCKVSGYTFTDYYMHWVQRAPGKGLEWIGLVDPIDGETIYAEKFQGRVTITADTSTDTAYMELCSLRSEDTAVYYCATDFVKLDFSLSFQHWGQGTLVTVSS
Response: 0.3 µg/mL

Query: Look at this binder and give its reported EC50. Wild-type anti-IL2Rbeta VH in the multi-specific format (anti-LAG3 and a single anti-IL2Rgamma/anti-IL2Rbeta unit) (protein, part only; not given: rest of multi-specific format, part only) VH: EVQLVQSGAEVKKPGACVKISCKVSGYTFTDYYMHWVQRAPGKGLEWIGLVDPEDGETIYAEKFQGRVTITADTSTDTAYMELCSLRSEDTAVYYCATDFVKLDFSLSFQHWGQGTLVTVSS
Response: 0.65 µg/mL

Numbers sourced from patent US20260146097A1.
